# procedure-text: hepatitis C replication reporter changes, two-sided – Huh7 cells, luciferase reporter, HCV replication inhibitor project, primary screen (AID 1109);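 note: huh7 hepatoma cells harbouring a luciferase neomycin HCV replicon reporter; luciferase luminescence as measure of HCV replicon replication; test concentration not given here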
# test-parameters: Huh7 HCV replicon luciferase reporter, 48 h; higher = more signal

compound	z-score
COC(=O)[C@@]1(Cc2ccc(OC)cc2)[C@H]2c3cc(C(=O)N(C)C)n(CCF)c3C[C@H]2CN1C(=O)c1ccccc1	-1.83
C#CCNS(=O)(=O)N(C)C	0.119
OCCCC1=CC(c2cccs2)N(Cc2cccc(OC(F)(F)F)c2)CC1 (stereo not given)	-2.1
C[N+](C)(C)CCCCCCNC(=O)[C@@H]1C[C@@H]2C(=O)NCC(=O)N2[C@@H]1c1ccc(O)cc1	1.33
COCCCNC(=O)[C@@]1(Cc2ccccc2N=[N+]=[N-])N=C(c2ccc(OCCCO)cc2)O[C@H]1c1ccccc1CN=[N+]=[N-]	-2.86
CCOC(=O)C[C@H]1[C@H](OC(=O)c2ccccc2-c2ccccc2)[C@@H](NC(=O)c2ccccc2)c2cc(OCCCO)ccc2N1C(=O)Cc1ccc(OC)cc1	-1.31
CC(C)c1ccc(NN2C(C(O)c3cccs3)C=CC3C(=O)N(c4ccccc4)C(=O)C32)cc1 (stereo not given)	-0.531
C=CC[C@]1(C(=O)N(C)C)N=C(c2ccc(OCCCO)cc2)O[C@H]1c1ccccc1	-2
CC(C)C[C@@H]1NC(=O)[C@@H]2C[C@H](C(=O)NCCCC[N+](C)(C)C)[C@H](c3cccc(OCCO)c3)N2C1=O	-0.604
C=CCOC(=O)[C@H]1[C@@H]2C(=O)O[C@@H](c3ccccc3)[C@@H](c3ccccc3)N2[C@@H](c2ccc(OCCOC(=O)[C@H]3C[C@H]4C(=O)N[C@@H](CCCCN(C)C)C(=O)N4[C@H]3c3ccc(O)cc3)cc2)[C@]12C(=O)Nc1ccccc12	-0.917
C[C@@H]1ON(c2ccccc2)[C@H](c2ccccc2)[C@H]1C(=O)N1C(=O)OC[C@H]1Cc1ccccc1	-0.782
COCCCNC(=O)[C@@]1(Cc2ccccc2)COC(c2ccc(OCCCO)cc2)=N1	-0.409
NCCCCCCNC(=O)[C@H]1C[C@H]2C(=O)N3CCC[C@H]3C(=O)N2[C@H]1c1ccc(O)cc1	0.0433
CC[C@@H]1[C@@H]2C3C(=O)N(CC)C(=O)C3CC(=O)[C@@H]2[C@H](c2ccc(C)cc2)N1S(=O)(=O)c1ccc(C)cc1 (stereo not given in full)	-1.64
COc1ccc(CCNC(=O)[C@@H]2c3ccccc3C(=O)N(Cc3ccccc3C(F)(F)F)[C@H]2c2ccc(CO)cc2)cc1	-1.2
